target: T1, Cyno B7-H4-Fc (Cyno B7H4 ECD, FcTM_6His) (cynomolgus monkey); assay: HTRF binding, murine IgG1
T1 construct: extracellular domain; also called cynomolgus B7-H4-Fc
Decide using Max: a value greater than or equal to 2000 is 1.0, a smaller one is 0.0.

# BINDER, CATEGORY
data = [
    ("ZY0EQD-E02 murine IgG1 (antibody, V domains shown) VH: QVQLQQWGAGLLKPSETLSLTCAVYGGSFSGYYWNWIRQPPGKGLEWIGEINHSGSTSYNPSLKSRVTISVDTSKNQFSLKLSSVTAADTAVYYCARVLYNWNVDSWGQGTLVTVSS VL: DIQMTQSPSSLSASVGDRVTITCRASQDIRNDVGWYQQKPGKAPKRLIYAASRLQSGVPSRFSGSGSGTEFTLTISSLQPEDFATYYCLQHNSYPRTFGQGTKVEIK", 1.0),
    ("ZY0EOB-F05 murine IgG1 (antibody, V domains shown) VH: QVQLQESGPGLVKPSQTLSLTCTVSDGSISSGGYYWSWIRQHPGKGLEWIGNIYYSGSTYYNPSLKSRVTISVDTSKNQFSLKLNSVTAADTAVYYCATEKALATVTPSGYENYYTVDVWGQGTTVTVSS VL: DIQLTQSPSFLSASVGDRVTITCWASQGISSYLAWYQQKPGKAPKLLIYAASTLQSGVPSRFSGSGSGTEFTLTISSLQPEDFATYYCQHLNSYPLTFGGGTKVEIK", 1.0),
    ("ZY0EP0-C07 murine IgG1 (antibody, V domains shown, also called ZY0EPO-C07) VH: QVQLVESGGVLVKPGGSLRLSCAASGFTLSDYYMSWIRQAPGMGLEWVSYISSSGSTIYYTDSVKGRFTISRDSAKNSLYLQMNSLRAEDTAVYYCARDGVGFDYWGQGTLVTVSS VL: EIVLTQSPGTLSLFPGERATLSCRASQSVSSSYLAWYQQKPGQSPRLLIYAASSRATGIPDRFSGSGSGTDFTLTISRLEPEDFAVYYCQQYGSSPLYTFGQGTKLEIK", 0.0),
    ("ZY0EPQ-E02 murine IgG1 (antibody, V domains shown) VH: QVQLQQWGAGLLKPSETLSLTCAVYGGSFSGYYWNWIRQPPGKGLEWIGEINHSGSTNYNPSLKSRVTILVDTSKNQFSLKLSSVTAADTAVYYCARNLYNWNLDSWGQGTLVTVSS VL: DIQMTQSPSSLSASVGDRVTITCRASQGIRNDLGWYQQKPGRAPKRLIYVASSLQSGVPSRFSGSGSGTEFTLTISSLQPEDFATYYCLQHNSYPRTFGQGTKVEIK", 1.0),
    ("ZY0EO5-E07 murine IgG1 (antibody, V domains shown, also called ZY0E05-E07; E05-E07) VH: QVQLQESGPGLVKPSQTLSLTCTVSGGSISSGGYYWSWIRQHPGKGLEWIGNIYYSGSTYYNPSLKSRVTISVDTSKNQFSLKLSSVTAADTAVYYCAREKALASVIPSGYENYYVVDVWGQGTTVTVSS VL: DIQLTQSPSFLSASVGGRVTITCWASQGIAGYLAWYQQKPGKAPKLLIYAASTLQSGVPSRFSGSGSGTEFTLTISSLQPEDFATYYCQHLNSYPLTFGGGTKVEIK", 0.0),
]
